# System Tested: MMP-2 (Homo sapiens (Human), UniProt P08253)
# Sequence (P08253 110-660): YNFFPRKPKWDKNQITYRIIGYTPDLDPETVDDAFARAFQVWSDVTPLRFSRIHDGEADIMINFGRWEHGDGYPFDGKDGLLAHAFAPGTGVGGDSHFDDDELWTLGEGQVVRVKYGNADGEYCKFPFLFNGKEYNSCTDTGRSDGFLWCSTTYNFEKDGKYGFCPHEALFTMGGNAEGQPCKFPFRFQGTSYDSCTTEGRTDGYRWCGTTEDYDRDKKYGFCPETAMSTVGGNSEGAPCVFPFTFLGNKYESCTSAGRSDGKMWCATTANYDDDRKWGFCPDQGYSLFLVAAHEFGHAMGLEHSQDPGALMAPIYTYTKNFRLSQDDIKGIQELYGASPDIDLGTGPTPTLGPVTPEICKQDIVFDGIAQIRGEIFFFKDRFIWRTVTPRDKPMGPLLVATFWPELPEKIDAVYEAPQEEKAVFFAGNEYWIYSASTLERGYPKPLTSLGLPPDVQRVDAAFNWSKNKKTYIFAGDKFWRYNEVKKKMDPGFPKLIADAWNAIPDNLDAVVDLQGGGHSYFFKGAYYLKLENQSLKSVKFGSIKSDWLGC
# Experiment Notes: MMP-2 inhibition assay (fluorimetric, DQ gelatin substrate)
# Condition Summary: recombinant MMP-2 (CHO cells) 85 ng/mL, DQ gelatin 50 μg/mL, 2 hours at room temperature, pH 7.6
Where a SMILES comes first, the peptide text is derived from it. [ ]: non-standard residue; d: D form. The star is where a group is joined. ξ: configuration not given here. NMeIle(3ξ) = CCC(C)[C@H](NC)C(=O)O; NHOH = ON*
Measured Property: IC50 (µM)

Here are 3 molecules together with their reported answers.
CCC(C)[C@@H](C(=O)N[C@@H](Cc1c[nH]c2ccccc12)C(=O)NO)N(C)C(=O)[C@@H]1CCCN1C(C)=O (some centres unmarked) [Example C21, reference compound] (Ac-Pro-[NMeIle(3ξ)]-Trp-{NHOH}); 110
CCCC(CCC)C(=O)N1CCC[C@H]1C(=O)N(C)[C@H](C(=O)N[C@@H](CCNC(=O)c1cc(F)cc(F)c1)C(=O)NO)C(C)CC (some centres unmarked); 0.974
CCCCCC(=O)N1CC(F)(F)C[C@H]1C(=O)N(C)[C@H](C(=O)N[C@@H](CCNC(=O)c1cc(F)cc(F)c1)C(=O)NO)C(C)CC (some centres unmarked); 0.159

(A) CCCCCC(=O)N1CCC[C@H]1C(=O)N(C)[C@H](C(=O)N[C@@H](CCNC(=O)c1cc(F)cc(F)c1)C(=O)NO)C(C)CC (some centres unmarked)
(B) CCCCCCCC(=O)N1CCC[C@H]1C(=O)N(C)[C@H](C(=O)N[C@@H](CCNC(=O)c1cc(F)cc(F)c1)C(=O)NO)C(C)CC (some centres unmarked)
Two entries are listed, A and B . Which one carries the higher IC50? Please respond with the label that marks your chosen entry.
B

(1) CCC(C)[C@@H](C(=O)N[C@@H](CCNC(=O)c1cc(F)cc(F)c1)C(=O)NO)N(C)C(=O)[C@@H]1CCCN1C(=O)CCN(C)C(C)=O (some centres unmarked)
(2) CCC(C)[C@@H](C(=O)N[C@@H](CCNC(=O)c1cc(F)cc(F)c1)C(=O)NO)N(C)C(=O)[C@@H]1CCCN1C(=O)CCCOc1ccccc1 (some centres unmarked)
(3) CCC(C)[C@@H](C(=O)N[C@@H](CCNC(=O)c1ccc(F)cc1)C(=O)NO)N(C)C(=O)[C@@H]1CCCN1C(C)=O (some centres unmarked)
Form: Sort by [IC50] Order [ ascending ] Please, when replying, give the labels in the order that was requested.
3, 2, 1
(3: 0.202 µM, 2: 0.362 µM, 1: 1.15 µM)

* * *

# System Tested: MMP-3 (Homo sapiens (Human), UniProt P08254)
# Sequence (P08254 100-477): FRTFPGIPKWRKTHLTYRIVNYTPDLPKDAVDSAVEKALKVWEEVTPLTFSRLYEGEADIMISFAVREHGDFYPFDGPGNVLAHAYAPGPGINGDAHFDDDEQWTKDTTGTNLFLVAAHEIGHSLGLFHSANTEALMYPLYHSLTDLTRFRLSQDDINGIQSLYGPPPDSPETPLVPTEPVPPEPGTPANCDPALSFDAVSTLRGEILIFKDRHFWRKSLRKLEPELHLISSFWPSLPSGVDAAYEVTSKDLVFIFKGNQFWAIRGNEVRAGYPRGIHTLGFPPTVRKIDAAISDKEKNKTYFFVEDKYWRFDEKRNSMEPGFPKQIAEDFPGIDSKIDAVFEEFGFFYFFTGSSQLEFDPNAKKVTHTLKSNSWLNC
# Experiment Notes: MMP-3 inhibition assay (fluorogenic peptide substrate)
# Condition Summary: recombinant MMP-3 7.7 nM, Mca-RPKPVE-Nval-WRK(Dnp)-NH2 10 μM, 4 hours at room temperature; tested at 1, 10, 100 and 200 μM
pIC50: −log10 of the molar value. Where a SMILES comes first, the peptide text is derived from it. [ ]: non-standard residue; d: D form. The star is where a group is joined. ξ: configuration not given here. Benzoyl(3,5-F2) = O=C(c1cc(F)cc(F)c1)*; NMeIle(3ξ) = CCC(C)[C@H](NC)C(=O)O; NMeF = CN[C@@H](Cc1ccccc1)C(=O)O; Dab = NCC[C@H](N)C(=O)O; NHOH = ON*
Measured Property: pIC50

Here are 8 compounds together with their reported answers.
CCC(C)[C@@H](C(=O)N[C@@H](CCNC(=O)c1ccc(F)cc1)C(=O)NO)N(C)C(=O)[C@@H]1CCCN1C(C)=O (some centres unmarked) [Example 1]; 4.52
CCCCCC(=O)N1CCC[C@H]1C(=O)N(C)[C@H](C(=O)N[C@@H](CCNC(=O)c1cc(F)cc(F)c1)C(=O)NO)C(C)CC (some centres unmarked) [Example 3]; 4.60
CCC(C)[C@@H](C(=O)N[C@@H](CCNC(=O)c1cc(F)cc(F)c1)C(=O)NO)N(C)C(=O)[C@@H]1CCCN1C(=O)CCN(C)C(C)=O (some centres unmarked) [Example 13]; 3.70
CCCC(=O)N1CCC[C@H]1C(=O)N(C)[C@H](C(=O)N[C@@H](CCNC(=O)c1cc(F)cc(F)c1)C(=O)NO)C(C)CC (some centres unmarked) [Example 4]; 4.88
CCC(C)[C@@H](C(=O)N[C@@H](CCNC(=O)c1cc(F)cc(F)c1)C(=O)NO)N(C)C(=O)[C@@H]1CCCN1C(=O)CC(C)C (some centres unmarked) [Example 5]; 4.59
CC(=O)N1CCC[C@H]1C(=O)N[C@@H](CCC(N)=O)C(=O)N[C@@H](Cc1c[nH]c2ccccc12)C(=O)NO [Example C17, reference compound] (Ac-Pro-Gln-Trp-{NHOH}); 5.51
CCC(C)[C@@H](C(=O)N[C@@H](CCNC(=O)c1cc(F)cc(F)c1)C(=O)NO)N(C)C(=O)[C@@H]1CCCN1C(C)=O (some centres unmarked) [Example 2]; 4.72
CCC(C)[C@@H](C(=O)N[C@@H](CCNC(=O)c1cc(F)cc(F)c1)C(=O)NO)N(C)C(=O)[C@@H]1CCCN1C(=O)[C@H](Cc1ccccc1)N(C)C(C)=O (some centres unmarked) [Example 11] (Ac-[NMeF]P[NMeIle(3ξ)][Dab](Benzoyl(3,5-F2))-{NHOH}); 3.70

(I) CCCCCC(=O)N1CC(F)(F)C[C@H]1C(=O)N(C)[C@H](C(=O)N[C@@H](CCNC(=O)c1cc(F)cc(F)c1)C(=O)NO)C(C)CC (some centres unmarked) [Example 7]
(II) CCC(C)[C@@H](C(=O)N[C@@H](CCNC(=O)c1cc(F)cc(F)c1)C(=O)NO)N(C)C(=O)[C@@H]1CC(F)(F)CN1C(=O)CCCOc1ccccc1 (some centres unmarked) [Example 10]
Two entries are listed, I and II . Which one carries the higher pIC50? Please respond with the label that marks your chosen entry.
I

* * *

# System Tested: MMP-2 (Homo sapiens (Human), UniProt P08253)
# Experiment Notes: MMP-2 inhibition assay (fluorimetric, DQ gelatin substrate)
# Condition Summary: recombinant MMP-2 (CHO cells) 85 ng/mL, DQ gelatin 50 μg/mL, 2 hours at room temperature, pH 7.6
Where a SMILES comes first, the peptide text is derived from it. [ ]: non-standard residue; d: D form. The star is where a group is joined. ξ: configuration not given here. Benzoyl(3,5-F2) = O=C(c1cc(F)cc(F)c1)*; NMeIle(3ξ) = CCC(C)[C@H](NC)C(=O)O; NMeF = CN[C@@H](Cc1ccccc1)C(=O)O; Dab = NCC[C@H](N)C(=O)O; NHOH = ON*
Measured Property: IC50 (nM)

CCC(C)[C@@H](C(=O)N[C@@H](CCNC(=O)c1cc(F)cc(F)c1)C(=O)NO)N(C)C(=O)[C@@H]1CCCN1C(=O)CC(C)C (some centres unmarked) [Example 5]; 116
CCC(C)[C@@H](C(=O)N[C@@H](CCNC(=O)c1cc(F)cc(F)c1)C(=O)NO)N(C)C(=O)[C@@H]1CCCN1C(=O)[C@H](Cc1ccccc1)N(C)C(C)=O (some centres unmarked) [Example 11] (Ac-[NMeF]P[NMeIle(3ξ)][Dab](Benzoyl(3,5-F2))-{NHOH}); 174

(A) CC(=O)N1CCC[C@H]1C(=O)N[C@@H](CCC(N)=O)C(=O)N[C@@H](Cc1c[nH]c2ccccc12)C(=O)NO [Example C17, reference compound] (Ac-Pro-Gln-Trp-{NHOH})
(B) CCCC(=O)N1CCC[C@H]1C(=O)N(C)[C@H](C(=O)N[C@@H](CCNC(=O)c1cc(F)cc(F)c1)C(=O)NO)C(C)CC (some centres unmarked) [Example 4]
Two entries are listed, A and B . Which one carries the higher IC50? Please respond with the label that marks your chosen entry.
A

* * *

# System Tested: MMP-9 (Homo sapiens)
# Sequence (P14780 107-707 limits assumed): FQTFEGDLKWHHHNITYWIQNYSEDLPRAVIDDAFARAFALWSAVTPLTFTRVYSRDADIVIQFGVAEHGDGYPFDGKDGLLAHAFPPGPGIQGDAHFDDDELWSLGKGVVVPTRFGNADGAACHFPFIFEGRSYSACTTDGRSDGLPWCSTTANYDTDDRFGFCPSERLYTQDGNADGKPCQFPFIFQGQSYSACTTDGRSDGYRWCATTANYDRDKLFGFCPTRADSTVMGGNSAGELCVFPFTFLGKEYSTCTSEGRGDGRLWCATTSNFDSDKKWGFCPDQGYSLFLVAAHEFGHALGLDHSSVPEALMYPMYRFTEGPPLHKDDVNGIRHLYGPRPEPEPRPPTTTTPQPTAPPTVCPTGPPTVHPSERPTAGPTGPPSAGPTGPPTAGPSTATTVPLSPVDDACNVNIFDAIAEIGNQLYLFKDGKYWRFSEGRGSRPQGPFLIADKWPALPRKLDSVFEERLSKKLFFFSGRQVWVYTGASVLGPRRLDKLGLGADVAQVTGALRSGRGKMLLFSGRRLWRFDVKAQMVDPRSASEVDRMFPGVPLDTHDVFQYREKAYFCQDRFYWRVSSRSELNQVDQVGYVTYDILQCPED
# Experiment Notes: MMP-9 inhibition assay (fluorimetric, DQ gelatin substrate)
# Condition Summary: recombinant MMP-9 (Merck-Millipore for examples 1 to 9 and comparative examples; Enzo for examples 10 to 16), DQ gelatin 50 μg/mL, 4 hours at room temperature, pH 7.6
Where a SMILES comes first, the peptide text is derived from it. [ ]: non-standard residue; d: D form. The star is where a group is joined. ξ: configuration not given here. Benzoyl(3,5-F2) = O=C(c1cc(F)cc(F)c1)*; NMeIle(3ξ) = CCC(C)[C@H](NC)C(=O)O; NMeA = CN[C@@H](C)C(=O)O; Dab = NCC[C@H](N)C(=O)O; Hexanoyl = CCCCCC(=O)*; Bz = O=C(c1ccccc1)*; NHOH = ON*
Measured Property: IC50 (µM)

Here are 4 compounds together with their reported answers.
CCCC(CCC)C(=O)N1CCC[C@H]1C(=O)N(C)[C@H](C(=O)N[C@@H](CCNC(=O)c1cc(F)cc(F)c1)C(=O)NO)C(C)CC (stereo partly drawn) [Example 8]; 0.263
CCCCCC(=O)N1CCC[C@H]1C(=O)N(C)[C@H](C(=O)N[C@@H](CCNC(=O)c1ccccc1)C(=O)NO)C(C)CC (stereo partly drawn) [Example 15] (Hexanoyl-Pro-[NMeIle(3ξ)]-[Dab](Bz)-{NHOH}); 0.702
CCC(C)[C@@H](C(=O)N[C@@H](CCNC(=O)c1cc(F)cc(F)c1)C(=O)NO)N(C)C(=O)[C@@H]1CCCN1C(=O)[C@H](C)N(C)C(C)=O (stereo partly drawn) [Example 12] (Ac-[NMeA]P[NMeIle(3ξ)][Dab](Benzoyl(3,5-F2))-{NHOH}); 0.136
CCCCCC(=O)N1CC(F)(F)C[C@H]1C(=O)N(C)[C@H](C(=O)N[C@@H](CCNC(=O)c1cc(F)cc(F)c1)C(=O)NO)C(C)CC (stereo partly drawn) [Example 7]; 0.713

(a) CCCCCCCC(=O)N1CCC[C@H]1C(=O)N(C)[C@H](C(=O)N[C@@H](CCNC(=O)c1cc(F)cc(F)c1)C(=O)NO)C(C)CC (stereo partly drawn) [Example 6]
(b) CCCC(=O)N1CCC[C@H]1C(=O)N(C)[C@H](C(=O)N[C@@H](CCNC(=O)c1cc(F)cc(F)c1)C(=O)NO)C(C)CC (stereo partly drawn) [Example 4]
Which gives the smaller IC50 number: a or b ? Please respond with the label that marks your chosen entry.
b
